Experiment notes: viability profiling in MM1S myeloma cells – cell-based, resazurin fluorescence, basal, 24 h, PK04 Diversity Set, profiling panel (AID 1174);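 also: MM1S multiple myeloma cell line; test concentration not given here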
Test parameters: higher = more signal, called active from +8 up or from −8 down
Measured parameter: z-score

Molecule	Result number
O=C1C2C=CC(C(O)c3ccccn3)N(Nc3ccccc3F)C2C(=O)N1c1ccccc1 (stereo unspecified)	-0.497
COc1cc(CO)cc(I)c1O[C@H]1C=C(C(=O)NCCO)C[C@@H](N(CCc2cccc(F)c2)C(=O)CCC2CCCC2)[C@@H]1O	-3.26
O=C(NCC(O)CO)[C@@]1(Cc2ccccc2)COC(c2ccc(OCCCO)cc2)=N1 (stereo partly specified)	-0.322
C=C(COC)C(=O)CC[C@@H](OC(=O)c1ccccc1-c1ccccc1C(=O)O)c1ccc(CO)o1	-0.0674
CC(=O)NCCCC[C@@H]1NC(=O)[C@@H]2C[C@H](C(=O)NCCCCCC[N+](C)(C)C)[C@H](c3cccc(OCCO)c3)N2C1=O	-0.147
NC(=O)NCC#Cc1ccc2c(c1)[C@]1(C(=O)N2)[C@H](C(=O)NC[C@H](O)c2ccccc2)[C@H]2C(=O)O[C@H](c3ccccc3)[C@H](c3ccccc3)N2[C@@H]1c1ccccc1OCCO	0.56
